assay: NCI Yeast Anticancer Drug Screen. Data for the bub3 strain (AID 167); conditions: S. cerevisiae bub3 mutant strain, at 5.0 µM (retest, dose inferred, filed as 0.5), stronger effect = higher value
Compounds without any hit were thinned out: in the full panel of roughly 79,000, 15% have a hit.
ENDPOINT_NAME: growth inhibition (%)
Could you give me the number in %? Just the number is fine.

COMPOUND | growth inhibition, %
CCCCC1C(=O)N2c3ccccc3-c3ccccc3N2C1=O | 6
CC(C)c1cccc(O)c1O | -1
N#CCCN(CCC#N)Cc1cc(-c2ccccc2)ccc1O | 1
COc1ccc(C(=O)C2Cc3c(ccc4ccccc34)OC2=O)cc1 (stereo not drawn) | -1
CC(C)N(C(=O)CC1(O)CCCCC1)C(C)C | -1
O=C(Nc1ccccc1C(=O)O)c1ccccc1 | -14
NNc1cc(C(F)(F)F)nc2ccccc12 | -65
CCOC(=O)c1c(O)c(C)c(=O)n2c1[nH]c1cc(C)c(C)cc12 | -6
Cc1cc(=O)n(-c2cc3cccccc-3n2)[nH]1 | -1
N#Cc1cccc(C[P+](c2ccccc2)(c2ccccc2)c2ccccc2)c1 | 4

**Query** Given C=CC[C@]1(C(C)Cc2ccc(OC)c(OC)c2)C[C@@H](OC)C=CC1=O (stereo partly drawn) , state its recorded growth inhibition.
**Result** 7

**Query** Try `Cc1ccc(OC/C=C/c2cccc(C#N)c2)cc1` next.
**Result** 0

**Query** For `CN(C)c1nc(=NCc2ccco2)ss1` then?
**Result** 32

**Query** Also need `Cc1c(N=Nc2cccc(F)c2)c(-c2ccccc2)nn1C(N)=S` , thanks.
**Result** 1

**Query** Similarly, c1ccc(C(CNCCN2CCCCCC2)C2CCCCC2)cc1 (stereo not drawn) ?
**Result** 22

**Query** Try `N#CC1(C#N)C(C#N)(C#N)C12CCCC2` next.
**Result** 4

**Query** Lookup O=C(OC1C2CCC2C2CC21)c1cc([N+](=O)[O-])cc([N+](=O)[O-])c1 (stereo not drawn)
**Result** 6

**Query** Here is the next compound: CC1N(O)C(c2ccccc2)C(c2ccccc2)=[N+]1[O-] (stereo not drawn)
**Result** 22

**Query** `NNc1cccc(C(F)(F)F)c1` ?
**Result** -1

**Query** Please do the same for `COC(=O)c1cccc2c1C(=O)c1ccccc1-2` as well.
**Result** -23

Origin of measurements: PubChem BioAssay (NCI)
